Target: Cystathionine beta-synthase (Homo sapiens, UniProt P35520)
Sequence (P35520 whole entry): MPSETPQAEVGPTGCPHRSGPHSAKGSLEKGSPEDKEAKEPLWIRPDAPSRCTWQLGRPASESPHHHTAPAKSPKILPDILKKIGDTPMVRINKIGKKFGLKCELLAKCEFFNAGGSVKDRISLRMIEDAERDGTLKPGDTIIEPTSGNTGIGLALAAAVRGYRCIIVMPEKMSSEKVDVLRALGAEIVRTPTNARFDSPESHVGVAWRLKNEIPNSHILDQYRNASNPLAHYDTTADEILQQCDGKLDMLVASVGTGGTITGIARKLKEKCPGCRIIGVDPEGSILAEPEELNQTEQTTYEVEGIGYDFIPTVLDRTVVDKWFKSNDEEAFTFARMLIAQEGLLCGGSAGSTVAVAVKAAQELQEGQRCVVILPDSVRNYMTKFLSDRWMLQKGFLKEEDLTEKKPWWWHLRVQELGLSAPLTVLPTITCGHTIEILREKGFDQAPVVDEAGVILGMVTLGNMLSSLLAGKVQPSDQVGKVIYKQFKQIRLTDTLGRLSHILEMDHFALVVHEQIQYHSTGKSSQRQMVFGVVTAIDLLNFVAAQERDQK
quantity.kind: Kd (µM)
Express your answer in µM, writing the number without its unit.

Prompt: Tell me the measured Kd of O=C(Nc1cccc(C(=O)O)c1)Nc1ccc(Cl)c(Cl)c1 , please.
Response: 94

----------
Would you mind telling me the reported K of each entry?
Test system: Mycobacterium tuberculosis
Test: Inhibition of Mycobacterium tuberculosis CysM expressed in Escherichia coli strain BL21 (DE3) assessed as apparent first-order rate constant for the formation of the alpha-aminoacrylate intermediate at 100 uM incubated for 5 mins in presence of OPS by spectrophotometry
A number alone suffices; assume min⁻¹.

Prompt: Provide the documented K with Mycobacterium tuberculosis as the system for O=C(Nc1cccc(-c2ccccc2)c1)Nc1ccc(O)c(C(=O)O)c1
Response: 0.23

Prompt: Tell me reported K for COc1ccc(NC(=O)Nc2cccc(C(=O)O)c2)cc1 , tested with Mycobacterium tuberculosis.
Response: 3.84

Prompt: Enter reported K observed with Mycobacterium tuberculosis for O=C(Nc1ccccc1)Nc1cccc(C(=O)O)c1
Response: 1.02

Prompt: Which measured K belongs to Cc1ccc(NC(=O)Nc2cccc(C(=O)O)c2)cc1 , tested on Mycobacterium tuberculosis?
Response: 1.92

----------
Experiment: Binding affinity to Mycobacterium tuberculosis CysM by ITC analysis
quantity.kind: Kd (nM)
Report the figure in nM without appending any unit label.

Prompt: Please look up its Kd: O=C(Nc1ccc(Br)cc1)Nc1cccc(C(=O)O)c1
Response: 1400

Prompt: Given the entry O=C(Nc1cccc(-c2ccccc2)c1)Nc1ccc(O)c(C(=O)O)c1 , report its measured Kd.
Response: 2200

Prompt: Which Kd is reported for this compound? O=C(Nc1cccc(C(=O)O)c1)Nc1ccc(Cl)c(Cl)c1
Response: 320

Prompt: // lookup Kd for O=C(Nc1ccc(Cl)cc1)Nc1cccc(C(=O)O)c1
Response: 3400

----------
Assay: Binding affinity to Mycobacterium tuberculosis CysK1 by PLP fluorescence-based screening assay
quantity.kind: pKd
Note on pKd: it is the negative log10 of concentration, concentration in mol/L.

Prompt: Look at this compound and give its reported pKd. O=C(Nc1cccc(C(=O)O)c1)Nc1cccc(-c2ccccc2)c1
Response: 4.01

Prompt: I am curious: what pKd value has been reported for O=C(Nc1cccc(C(=O)O)c1)Nc1ccc(Cl)c(Cl)c1 ?
Response: 3.62
